Taken from the supplement of paper PMC11061612.

Each entry below carries its recorded combination Emax.
- System: MS751 (Cervical Carcinoma)
- assay_procedure: combination Emax (second highest fraction inhibited in the dose matrix, 72 h); higher = more inhibition; extreme values may be limits of the assay
In your answer, state the number alone without any accompanying words.

Solved entries (count: 5):
* Cn1cnc2c(F)c(Nc3ccc(Br)cc3Cl)c(C(=O)NOCCO)cc21 [Selumetinib] + C[C@@H]1COCCN1C2=NC(=NC(=C2)C3(CC3)[S@](=N)(=O)C)C4=C5C=CNC5=NC=C4 [AZD6738] (first compound max 10 µM, 7x7, partner max 10 µM) | 0.476
* Cc1nc(Nc2ncc(C(=O)Nc3c(C)cccc3Cl)s2)cc(N2CCN(CCO)CC2)n1 [Dasatinib] + CC(=O)Nc1cccc(-n2c(=O)n(C3CC3)c(=O)c3c(Nc4ccc(I)cc4F)n(C)c(=O)c(C)c32)c1 [Trametinib] (first compound max 2 µM, 7x7, partner max 1 µM) | 0.282
* CN(CCO)CC[C@H](CSc1ccccc1)Nc1ccc(S(=O)(=O)NC(=O)c2ccc(N3CCC([C@@H](O)c4ccccc4-c4ccc(Cl)cc4)CC3)cc2)cc1S(=O)(=O)C(F)(F)F [AZD4320] + Cc1cc2ncnn2cc1Nc1ncc2c(n1)n(C1CCOCC1)c(=O)n2C [AZD7648] (first compound max 1 µM, 7x7, partner max 10 µM) | 0.146
* CC(=O)c1c(C)c2cnc(Nc3ccc(N4CCNCC4)cn3)nc2n(C2CCCC2)c1=O [Palbociclib] + CN(CC[C@H](CSC1=CC=CC=C1)NC2=C(C=C(C=C2)S(=O)(=O)NC(=O)C3=CC=C(C=C3)N4CCC(CC4)[C@H](C5=CC=CC=C5C6=CC=C(C=C6)Cl)O)S(=O)(=O)C(F)(F)F)CCO [AZD4320] (first compound max 10 µM, 7x7, partner max 1 µM) | 0.159
* CC1(C)CCC(CN2CCN(c3ccc(C(=O)NS(=O)(=O)c4ccc(NCC5CCOCC5)c([N+](=O)[O-])c4)c(Oc4cnc5[nH]ccc5c4)c3)CC2)=C(c2ccc(Cl)cc2)C1 [Venetoclax] + C[C@@H](Nc1cc(F)cc(F)c1)c1cc(C(=O)N(C)C)cc2c(=O)cc(N3CCOCC3)oc12 [AZD8186] (first compound max 1 µM, 7x7, partner max 3 µM) | 0.169

Kindly consider the entry below.
Please list combination Emax recorded for the compound CN(C)CCCOc1ccc(-c2ccc3ncc4c(c3c2)n(C2CCOCC2)c(=O)n4C)cn1 [AZD0156] + O=C(c1cc(Cc2n[nH]c(=O)c3ccccc23)ccc1F)N1CCN(C(=O)C2CC2)CC1 [Olaparib] (first compound max 3 µM, partner max 3 µM)
0.232

---

- Test system: COLO-678 (Colorectal Carcinoma)
- assay_procedure: combination Emax (second highest fraction inhibited in the dose matrix, 72 h); higher = more inhibition; extreme values may be limits of the assay
measured_attribute: combination Emax
In your answer, state the number alone without any accompanying words.

- CC(=O)c1c(C)c2cnc(Nc3ccc(N4CCNCC4)cn3)nc2n(C2CCCC2)c1=O [Palbociclib] + CN(CC[C@H](CSC1=CC=CC=C1)NC2=C(C=C(C=C2)S(=O)(=O)NC(=O)C3=CC=C(C=C3)N4CCC(CC4)[C@H](C5=CC=CC=C5C6=CC=C(C=C6)Cl)O)S(=O)(=O)C(F)(F)F)CCO [AZD4320] (first compound max 10 µM, 7x7, partner max 1 µM): 0.354
- NC1(C(=O)N[C@@H](CCO)c2ccc(Cl)cc2)CCN(c2ncnc3[nH]ccc23)CC1 [Capivasertib] + COc1nnc2ccc(N3CCC(c4ccc(OCCN5CCN(C)C(=O)[C@H]5C)cc4)CC3)nn12 [AZD5153] (first compound max 10 µM, 7x7, partner max 1 µM): 0.396
- COc1cccc(OCCCN)c1-c1cc(Nc2cnc(C#N)cn2)n[nH]1 [Prexasertib] + C[C@@H]1COCCN1C2=NC(=NC(=C2)C3(CC3)[S@](=N)(=O)C)C4=C5C=CNC5=NC=C4 [AZD6738] (first compound max 1 µM, 7x7, partner max 10 µM): 0.136
- CC1(C)CCC(CN2CCN(c3ccc(C(=O)NS(=O)(=O)c4ccc(NCC5CCOCC5)c([N+](=O)[O-])c4)c(Oc4cnc5[nH]ccc5c4)c3)CC2)=C(c2ccc(Cl)cc2)C1 [Venetoclax] + Cc1cc2ncnn2cc1Nc1ncc2c(n1)n(C1CCOCC1)c(=O)n2C [AZD7648] (first compound max 1 µM, 7x7, partner max 10 µM): 0.16

Kindly consider the entry below.
Please list combination Emax recorded for the molecule CC(=O)c1c(C)c2cnc(Nc3ccc(N4CCNCC4)cn3)nc2n(C2CCCC2)c1=O [Palbociclib] + Cn1cnc2c(F)c(Nc3ccc(Br)cc3Cl)c(C(=O)NOCCO)cc21 [Selumetinib] (first compound max 10 µM, 7x7, partner max 10 µM)
0.525

---

- Tested on: ES8 (Ewing's Sarcoma);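 also: after 72 h of two-drug dosing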
- assay_procedure: Bliss excess, mean over the matrix (fraction); higher = more synergy
Each entry below carries its recorded Bliss excess.
In your answer, state the number alone without any accompanying words.

Find the measured Bliss excess of N#Cc1cnc(Nc2cc(NC[C@H]3CNCCO3)c(C(F)(F)F)cn2)cn1 [SRA737] + Nc1ccn([C@@H]2O[C@H](CO)[C@@H](O)C2(F)F)c(=O)n1 [Gemcitabine] (first compound max 10 µM, 7x7, partner max 0.3 µM) with ES8 (Ewing's Sarcoma) as test system.
0.0504

Find the measured Bliss excess of CC1(C)CCC(CN2CCN(c3ccc(C(=O)NS(=O)(=O)c4ccc(NCC5CCOCC5)c([N+](=O)[O-])c4)c(Oc4cnc5[nH]ccc5c4)c3)CC2)=C(c2ccc(Cl)cc2)C1 [Venetoclax] + C[C@@H]1COCCN1C2=NC(=NC(=C2)C3(CC3)[S@](=N)(=O)C)C4=C5C=CNC5=NC=C4 [AZD6738] (first compound max 1 µM, 7x7, partner max 10 µM) with ES8 (Ewing's Sarcoma) as test system.
0.004

Find the measured Bliss excess of COc1cc2c(cc1OCCCCCOc1cc3c(cc1OC)C(=O)N1C=C(C)C[C@H]1C=N3)N=C[C@@H]1CC(C)=CN1C2=O [SG3199] + O=C(c1cc(Cc2n[nH]c(=O)c3ccccc23)ccc1F)N1CCN(C(=O)C2CC2)CC1 [Olaparib] (first compound max 0.001 µM, 7x7, partner max 10 µM) with ES8 (Ewing's Sarcoma) as test system.
-0.0206

---

- Tested on: DND-41 (T-Lymphoblastic Leukemia)
- assay_procedure: combination Emax (second highest fraction inhibited in the dose matrix, 72 h); higher = more inhibition; extreme values may be limits of the assay
Each entry below carries its recorded combination Emax.

Solved entries (count: 2):
- Cc1cc2ncnn2cc1Nc1ncc2c(n1)n(C1CCOCC1)c(=O)n2C [AZD7648] + CCN(CCO)CCCOc1ccc2c(Nc3cc(CC(=O)Nc4cccc(F)c4)[nH]n3)ncnc2c1 [AZD2811] (first compound max 10 µM, 7x7, partner max 1 µM): 0.236
- CC1(C)CCC(CN2CCN(c3ccc(C(=O)NS(=O)(=O)c4ccc(NCC5CCOCC5)c([N+](=O)[O-])c4)c(Oc4cnc5[nH]ccc5c4)c3)CC2)=C(c2ccc(Cl)cc2)C1 [Venetoclax] + COc1cc(Nc2ncc3c(n2)-c2ccc(Cl)cc2C(c2c(F)cccc2OC)=NC3)ccc1C(=O)O [Alisertib] (first compound max 1 µM, 7x7, partner max 10 µM): 0.947

Kindly consider the entry below.
Please list combination Emax recorded for the compound CN(CCO)CC[C@H](CSc1ccccc1)Nc1ccc(S(=O)(=O)NC(=O)c2ccc(N3CCC([C@@H](O)c4ccccc4-c4ccc(Cl)cc4)CC3)cc2)cc1S(=O)(=O)C(F)(F)F [AZD4320] + Cc1cc2ncnn2cc1Nc1ncc2c(n1)n(C1CCOCC1)c(=O)n2C [AZD7648] (first compound max 1 µM, 7x7, partner max 10 µM)
1

---

Each entry below carries its recorded combination Emax.
- Tested on: KYSE-180 (Esophageal Squamous Cell Carcinoma)
- assay_procedure: combination Emax (second highest fraction inhibited in the dose matrix, 72 h); higher = more inhibition; extreme values may be limits of the assay
In your answer, state the number alone without any accompanying words.

Solved entries (count: 3):
* Cc1cc2ncnn2cc1Nc1ncc2c(n1)n(C1CCOCC1)c(=O)n2C [AZD7648] + C=CCn1c(=O)c2cnc(Nc3ccc(N4CCN(C)CC4)cc3)nc2n1-c1cccc(C(C)(C)O)n1 [AZD1775] (first compound max 10 µM, partner max 1 µM) | 0.778
* NC1(C(=O)N[C@@H](CCO)c2ccc(Cl)cc2)CCN(c2ncnc3[nH]ccc23)CC1 [Capivasertib] + C[C@@H]1COCCN1C2=NC(=NC(=C2)C3(CC3)[S@](=N)(=O)C)C4=C5C=CNC5=NC=C4 [AZD6738] (first compound max 10 µM, 7x7, partner max 10 µM) | 0.554
* Cc1c2c(nn1C)CSCc1cc(n(C)n1)CSc1cc(c3ccccc3c1)OCCCc1c(C(=O)O)n(C)c3c-2c(Cl)ccc13 [AZD5991] + Cn1cnc2c(F)c(Nc3ccc(Br)cc3Cl)c(C(=O)NOCCO)cc21 [Selumetinib] (first compound max 1 µM, 7x7, partner max 3 µM) | 0.848

Kindly consider the entry below.
Please list combination Emax recorded for the molecule C=CCn1c(=O)c2cnc(Nc3ccc(N4CCN(C)CC4)cc3)nc2n1-c1cccc(C(C)(C)O)n1 [AZD1775] + O=C(c1cc(Cc2n[nH]c(=O)c3ccccc23)ccc1F)N1CCN(C(=O)C2CC2)CC1 [Olaparib] (first compound max 1 µM, partner max 10 µM)
0.774
